Test system: NCI-H226
procedure summary: NCI tumour cell line growth inhibition, 48 h
Active and inactive are the calls of the source. Rule as the data show it: active = GI50 up to about 1.1 µM and inactive = higher.
Return exactly one item of label 1 (active), label 0 (inactive)

CC(C)(C)OC(=O)NCCCNC1(c2cc3ccccc3s2)CCCCC1
label 0

## Task GET /call?item= CN(Cc1ccccc1)Cn1ccnc1 returns the recorded outcome of this test.
## Result label 0

## Task GET /call?item= C1CC2CN(CCCN3CCOCC3)C(C1)O2 (configuration not stated) returns the recorded outcome of this test.
## Result label 0

## Task GET /call?item= Oc1ccc(SCc2cc(O)c(O)c(O)c2)cc1 returns the recorded outcome of this test.
## Result label 0

## Task GET /call?item= CCOC1=NC(C(F)(F)F)(C(F)(F)F)N=C(N2CCCCC2)O1 returns the recorded outcome of this test.
## Result label 0

## Task GET /call?item= COc1ccc2c(c1O)-c1cc(O)cc3c1[C@@H](C2)N(C)CC3 returns the recorded outcome of this test.
## Result label 0

----------
The entries below are paired with their reported GI50.
Tested on: MOLT-4
procedure summary: NCI tumour cell line growth inhibition, 48 h
Active and inactive are the calls of the source. Rule as the data show it: active = GI50 up to about 1.1 µM and inactive = higher.

Field: example entries. Status: answers known.
O=c1[c-](-c2ccccc2)[se]c(-c2ccccc2)[n+]1-c1ccccc1
18.8 µM (inactive)
NC1=CN2c3ccccc3N(CC(=O)N3CCOCC3)C2C=C1 (centres undefined)
> 100 µM (inactive)
N=c1c2c(-c3ccccc3)c[nH]c2ncn1N
> 100 µM (inactive)
CC(=O)OC/C=C/Cn1ncc(=O)[nH]c1=O
> 100 µM (inactive)
CCSc1nnc2c(-c3ccccc3)n[nH]c2n1
> 100 µM (inactive)

Pending compound:
## Task Tell us which GI50 value is on record for O=C(CC(=O)N(C(=O)/C=C\c1ccccc1)c1ccc(Cl)cc1)N1N=C(c2ccccc2)C(/N=N/c2cccc([N+](=O)[O-])c2)C1=O (centres undefined)
## Result 2.56 µM (inactive)

----------
Test system: 786-0
procedure summary: NCI tumour cell line growth inhibition, 48 h
The source made the active and inactive calls. Rule as the data show it: active = GI50 up to about 1.1 µM and inactive = higher.
The entries below are paired with their reported GI50.

Field: example entries. Status: answers known.
CCCCN(CCCC)CC(C(C)=O)C(c1ccccc1)c1c(O)c2ccccc2oc1=O (centres undefined)
> 100 µM (inactive)
Cc1cc(-c2[nH]c(C(=O)O)cc2I)on1
36.6 µM (inactive)
O=C1c2c(ccc3c2CCC3)CC12Cc1ccccc1C2
20.7 µM (inactive)

## Task Tell us which GI50 value is on record for CC(C)(c1ccc(C=O)o1)c1ccc(C(C)(C)c2ccc(C=O)o2)o1
## Result > 100 µM (inactive)

----------
Test system: OVCAR-4
procedure summary: NCI tumour cell line growth inhibition, 48 h
Active and inactive are the calls of the source. Cut-off read from the data, not from the text of the source: active = GI50 up to about 1.1 µM and inactive = higher.
measured parameter: GI50

CC(=O)Oc1cc2c(cc1OC(C)=O)OCC(c1ccccc1)C2 (stereo not drawn)
24 µM (inactive)
O=C(Nc1ccccc1F)c1c(O)nc2sccn2c1=O
> 10 µM (inactive)
SCc1ccc(CS)s1
> 100 µM (inactive)

## Task Tell us which GI50 value is on record for O=C(OCc1ccc([N+](=O)[O-])cc1)N1c2ccccc2[C@@]23O[C@]24CCC[C@H]3C#C/C=C\C#C[C@H]14
## Result > 100 µM (inactive)

## Task Tell us which GI50 value is on record for CC1=C(C(=O)Nc2ccccc2C)C(/C=C/c2ccccc2)C(C(=O)Nc2ccccc2C)=C(C)N1
## Result 96.4 µM (inactive)

## Task Tell us which GI50 value is on record for COc1cc(Nc2c(C#N)[n+]([O-])c3ccccc3[n+]2[O-])cc(OC)c1OC
## Result > 100 µM (inactive)

## Task Tell us which GI50 value is on record for COc1cc(-c2cc(=O)c3c(O)c(CC=C(C)C)c(O)cc3o2)ccc1O
## Result 15.8 µM (inactive)

## Task Tell us which GI50 value is on record for c1ccc2c(c1)ccn1ccc3c4ccccc4nc-3c21
## Result 0.332 µM (active)

## Task Tell us which GI50 value is on record for O=C1Nc2ccccc2C12CCCC2
## Result > 100 µM (inactive)

## Task Tell us which GI50 value is on record for CCN(CC)C(=O)COc1ccc(Br)cc1Br
## Result > 100 µM (inactive)

## Task Tell us which GI50 value is on record for Cc1ccc(/N=N/c2c(O)ccc3cc(S(=O)(=O)O)cc(S(=O)(=O)O)c23)cc1
## Result > 100 µM (inactive)

## Task Tell us which GI50 value is on record for O=C(O)COc1ccc2c3c1C(=O)CCC3CO2 (stereo not drawn)
## Result > 100 µM (inactive)

## Task Tell us which GI50 value is on record for COC(NC(=O)Nc1ccc(C)cc1)(C(F)(F)F)C(F)(F)F
## Result 34.2 µM (inactive)
